Origin of measurements: the supplement of paper PMC6555819

# System: PPARg:RXRa IVT, anti-PPARg (NR concentration 270 nM, RXRa partner concentration 90 nM)
# assay-procedure: PBM binding z-score (relative to random genomic background probes); higher = stronger binding; sequences stand for … in GC…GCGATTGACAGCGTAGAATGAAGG
property-measured: PBM binding z-score
Give bare numbers.

sequence-input: TCTAGCAGGCCAGAGGGTCACTCATGAGGTACGG
numeric-result: 1.02

Take each entry in turn and give its PBM binding z-score.
1. CAAACTAGGTCAAAGGTCAAATTCGAGCCAACCA
2. CAGCCTAGGTCAGGGCCAGGATAGGAGGAACGTT
3. TGAATGAGGTTAAAGATGAGGGAACGTGGCGTCG
4. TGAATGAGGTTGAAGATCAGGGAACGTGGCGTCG
5. GGAACGAGGGCATTCGAGTTGTTAGCATGGCGAT
6. CAAACTAGGTCAAGGTGAAAGTCGGTTTGTGCCA
7. CGTCCAAGGTCAGCAGATCAGTGAAAGCGACGTG

**A:**
[9.36, 1.82, 2.8, 0.294, 1.99, 8.62, 2.66]

Take each entry in turn and give its PBM binding z-score.
1. TCTTGTAGATCAATAGAGGTTAAGACAGTGCGCT
2. TAGCCTAGGTCATGCGGGCCAGTGTAGTGTCGGC
3. ACTTGTTGGTCAGCTGAGGTCACACACAATTCGG

**A:**
[0.857, 2.75, 2.7]

The recorded PBM binding z-score for entry `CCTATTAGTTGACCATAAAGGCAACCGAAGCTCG` equals 0.572

---

# Test system: PPARg homodimer (NR concentration 180 nM)
# assay-procedure: PBM binding z-score (relative to random genomic background probes); higher = stronger binding; sequences stand for … in GC…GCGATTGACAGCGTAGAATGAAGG
Record form. Attribute: PBM binding z-score. Fill in for each entry.
Give bare numbers.

sequence-input: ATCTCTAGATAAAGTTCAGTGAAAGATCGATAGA
PBM binding z-score: 0.994
--
sequence-input: TCATATAGGTAAAAGCTGAAAGTCGGTGTGGTAA
PBM binding z-score: 0.11
--
sequence-input: TAGCCTAGGTCTGATCGGGCCAGTATACGCTATA
PBM binding z-score: -0.906
--
sequence-input: GGAACGAGGGCATTCGAGTTGATATCATGGCGAT
PBM binding z-score: 0.277
--
sequence-input: GATACAGGGCCAGCTAGAGGCCAGAGTATGGAAA
PBM binding z-score: -0.793
--
sequence-input: CGTCCAAGGTCAGCAGCTCAGTGAAAGCGACGTG
PBM binding z-score: 1.96
--
sequence-input: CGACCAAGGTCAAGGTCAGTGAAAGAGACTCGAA
PBM binding z-score: 3.87
--
sequence-input: CGTCCAAGGCCAATGCTAGGTCAGTGAAAGCATT
PBM binding z-score: 0.131
--
sequence-input: TCTTGTAGATCAACAGGTTAAGAAAGCTGGCCAA
PBM binding z-score: 0.081
--
sequence-input: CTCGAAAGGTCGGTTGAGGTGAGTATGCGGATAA
PBM binding z-score: 1.08

Take each entry in turn and give its PBM binding z-score.
1. TTACCAAGGTGAAGGTAGTTGATCCCTCTGTAGA
2. CAAACTAGGTCACAGAGGTCAAAGTGCGTGCGTA

**A:**
[0.00789, 3.18]

Take each entry in turn and give its PBM binding z-score.
1. CAAACTAGGTCAAAGGTCACAGTCGAGCCAACCA
2. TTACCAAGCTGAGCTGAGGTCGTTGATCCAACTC

**A:**
1. 4.25
2. -1.16
